tested system: human ether-à-go-go-related gene (hERG) potassium channel (human, UniProt Q12809);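 note: peak tail current of the secondary pulse compared with the same well before compound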
Sequence (Q12809 whole entry, looked up): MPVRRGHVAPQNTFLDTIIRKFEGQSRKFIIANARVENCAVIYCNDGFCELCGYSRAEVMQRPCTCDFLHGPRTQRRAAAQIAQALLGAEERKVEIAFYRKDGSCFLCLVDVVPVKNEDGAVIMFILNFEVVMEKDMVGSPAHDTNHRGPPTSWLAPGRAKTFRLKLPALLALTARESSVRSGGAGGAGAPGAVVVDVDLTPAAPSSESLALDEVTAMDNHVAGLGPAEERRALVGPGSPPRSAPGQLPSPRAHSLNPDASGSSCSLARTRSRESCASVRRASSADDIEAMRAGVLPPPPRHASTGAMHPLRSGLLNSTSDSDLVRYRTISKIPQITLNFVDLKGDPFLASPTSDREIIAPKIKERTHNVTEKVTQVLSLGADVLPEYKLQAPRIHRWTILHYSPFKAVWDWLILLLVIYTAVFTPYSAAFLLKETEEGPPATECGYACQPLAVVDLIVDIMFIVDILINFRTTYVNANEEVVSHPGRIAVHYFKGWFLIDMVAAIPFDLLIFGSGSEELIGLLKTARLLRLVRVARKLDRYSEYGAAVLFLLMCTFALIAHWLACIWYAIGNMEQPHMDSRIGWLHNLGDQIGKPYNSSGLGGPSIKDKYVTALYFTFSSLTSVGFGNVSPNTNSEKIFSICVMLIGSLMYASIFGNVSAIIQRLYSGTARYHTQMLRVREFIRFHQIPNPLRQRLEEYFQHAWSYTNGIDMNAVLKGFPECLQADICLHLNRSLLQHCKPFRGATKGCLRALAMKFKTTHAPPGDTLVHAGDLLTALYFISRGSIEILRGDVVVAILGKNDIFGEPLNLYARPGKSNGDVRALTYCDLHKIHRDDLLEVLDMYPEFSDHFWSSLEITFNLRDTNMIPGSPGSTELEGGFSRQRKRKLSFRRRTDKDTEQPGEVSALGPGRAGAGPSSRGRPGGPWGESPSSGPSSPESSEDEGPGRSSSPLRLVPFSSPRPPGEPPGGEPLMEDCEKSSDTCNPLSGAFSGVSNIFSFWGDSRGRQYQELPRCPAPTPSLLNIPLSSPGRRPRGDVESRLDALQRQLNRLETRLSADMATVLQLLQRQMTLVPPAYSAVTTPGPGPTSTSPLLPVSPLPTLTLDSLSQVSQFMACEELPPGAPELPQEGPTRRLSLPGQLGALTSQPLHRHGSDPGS
run description: primary screen, population patch clamp on CHO cells stably expressing hERG; higher = less effect of the substance
The campaign covered roughly 310,000 compounds. About 14,000 (4.5%) showed an effect of 50% or more. Effects have a minus sign here. This is one part of a sample in which strong results are shown more often than they occur.
Quick reference for hERG current change (%, negative = inhibition) at 10uM among some compounds
parameter: hERG current change (%, negative = inhibition) at 10uM (%)

{"columns": ["compound", "tested system", "meas value"],
 "data": [
  ["CCN1C(=O)/C(=C/C=C2\\C=CN(CC)c3ccccc32)SC1=S", "human ether-à-go-go-related gene (hERG) potassium channel (human, UniProt Q12809)", -4.57],
  ["Cc1nc([N+](=O)[O-])c(N2CCN(C)CC2)n1Cc1ccccc1", "human ether-à-go-go-related gene (hERG) potassium channel (human, UniProt Q12809)", -10.4],
  ["O=C(CNC(=O)c1ccccc1)OCc1nnc(-c2ccc(Cl)cc2)o1", "human ether-à-go-go-related gene (hERG) potassium channel (human, UniProt Q12809)", -10.4],
  ["CC(C)C(=O)NC(c1cccs1)c1cc([N+](=O)[O-])c2cccnc2c1O (stereo not drawn)", "human ether-à-go-go-related gene (hERG) potassium channel (human, UniProt Q12809)", 31.7],
  ["COc1ccc(N2CCN(C(=O)c3ccc4c(c3)OCO4)CC2)cc1", "human ether-à-go-go-related gene (hERG) potassium channel (human, UniProt Q12809)", -21.7],
  ["O=C(O)c1ccc(N2CCN(Cc3ccc4c(c3)OCO4)CC2)c([N+](=O)[O-])c1", "human ether-à-go-go-related gene (hERG) potassium channel (human, UniProt Q12809)", 17.3],
  ["O=[N+]([O-])c1ccc(N2CCN(c3ccccc3)CC2)nc1", "human ether-à-go-go-related gene (hERG) potassium channel (human, UniProt Q12809)", 4.96],
  ["CC(=O)C1=C(O)C(=O)N(c2cccc(Br)c2)C1c1ccc(Br)cc1 (stereo not drawn)", "human ether-à-go-go-related gene (hERG) potassium channel (human, UniProt Q12809)", 15.8],
  ["COc1ccccc1C(=O)NCC(=O)OCC(=O)c1ccc2c(c1)-c1ccccc1C2", "human ether-à-go-go-related gene (hERG) potassium channel (human, UniProt Q12809)", -0.208]
]}
